assay: Stability in human plasma; assay type: in vitro ADME; details: 2 μM peptidomimetic, pooled human plasma, 37° C.
Non-standard residues stand in square brackets, D forms with d. Residues, ends and D or L forms follow the SMILES beside them. ξ: configuration not given here. Leu(5,5,5,5',5',5'-F6) = N[C@@H](CC(C(F)(F)F)C(F)(F)F)C(=O)O; ξBip(2'-Et-4'-OMe) = CCc1cc(OC)ccc1-c1ccc(CC(N)C(=O)O)cc1; ξbishPhe(2-F) = NC(CCCc1ccccc1F)C(=O)O; ξαMePhe(2-F) = CC(N)(Cc1ccccc1F)C(=O)O; Aib = CC(C)(N)C(=O)O
Recorded metric: half-life (t1/2) when incubated with human plasma

CCc1cc(OC)ccc1-c1ccc(CC(NC(=O)[C@H](CC(=O)O)NC(=O)[C@H](CO)NC(=O)[C@@H](NC(=O)C(C)(Cc2ccccc2F)NC(=O)[C@@H](NC(=O)CNC(=O)[C@H](CC(C(F)(F)F)C(F)(F)F)NC(=O)C(C)(C)NC(=O)[C@H](Cc2c[nH]cn2)NC(C)=O)[C@@H](C)O)[C@@H](C)O)C(=O)NC(CCCc2ccccc2F)C(N)=O)cc1 (stereo partly shown) [compound 212] (Ac-H[Aib][Leu(5,5,5,5',5',5'-F6)]GT[ξαMePhe(2-F)]TSD[ξBip(2'-Et-4'-OMe)][ξbishPhe(2-F)]-NH2) :: (9) h

---

system: C57BL/6J mice (mild hyperglycemic); assay: In vivo glucose reduction, acute single dose 120-min time-course, i.p. route; parameters: species or system mouse; unit not given here; settings: male C57BL/6J mice, 10 nM/kg i.p., 0 min
Some molecules, each annotated with its measured blood glucose levels.
# print the numeric value only

// solved cases for blood glucose levels follow
CCc1cc(OC)ccc1-c1ccc(CC(CNC(CCCc2ccccc2)C(N)=O)NC(=O)[C@H](CC(=O)O)NC(=O)[C@H](CO)NC(=O)[C@@H](NC(=O)C(C)(Cc2ccccc2F)NC(=O)[C@@H](NC(=O)CNC(=O)C(CCC#N)NC(=O)C(C)(C)NC(=O)[C@@H](N)Cc2c[nH]cn2)[C@H](C)O)[C@H](C)O)cc1 (single isomer, unassigned) :: 182
CCc1cc(OC)ccc1-c1ccc(CC(NC(=O)[C@H](CC(=O)O)NC(=O)[C@H](CO)NC(=O)[C@@H](NC(=O)[C@H](Cc2ccccc2)NC(=O)[C@@H](NC(=O)CNC(=O)C(CCC#N)NC(=O)C(C)(C)NC(=O)[C@@H](N)Cc2c[nH]cn2)[C@@H](C)O)[C@@H](C)O)C(=O)NC(CCCc2ccc(F)cc2C(F)(F)F)C(N)=O)cc1 (single isomer, unassigned) :: 183

// query blood glucose levels value for entry CCc1cc(OC)ccc1-c1ccc(CC(NC(=O)[C@H](CC(=O)O)NC(=O)[C@H](CO)NC(=O)[C@@H](NC(=O)C(C)(Cc2ccccc2F)NC(=O)[C@@H](NC(=O)CNC(=O)[C@H](CC(C(F)(F)F)C(F)(F)F)NC(=O)C(C)(C)NC(=O)[C@@H](N)Cc2c[nH]cn2)[C@@H](C)O)[C@H](C)O)C(=O)NC(CCCc2ccccc2)C(N)=O)cc1 (single isomer, unassigned) 184

---

biological target: DPP IV (Homo sapiens, UniProt P27487); assay: Stability against DPP IV enzyme; assay type: in vitro ADME; conditions: 2 μM peptidomimetic, 37° C., 24 h
Sequence (P27487 whole entry, species assumed): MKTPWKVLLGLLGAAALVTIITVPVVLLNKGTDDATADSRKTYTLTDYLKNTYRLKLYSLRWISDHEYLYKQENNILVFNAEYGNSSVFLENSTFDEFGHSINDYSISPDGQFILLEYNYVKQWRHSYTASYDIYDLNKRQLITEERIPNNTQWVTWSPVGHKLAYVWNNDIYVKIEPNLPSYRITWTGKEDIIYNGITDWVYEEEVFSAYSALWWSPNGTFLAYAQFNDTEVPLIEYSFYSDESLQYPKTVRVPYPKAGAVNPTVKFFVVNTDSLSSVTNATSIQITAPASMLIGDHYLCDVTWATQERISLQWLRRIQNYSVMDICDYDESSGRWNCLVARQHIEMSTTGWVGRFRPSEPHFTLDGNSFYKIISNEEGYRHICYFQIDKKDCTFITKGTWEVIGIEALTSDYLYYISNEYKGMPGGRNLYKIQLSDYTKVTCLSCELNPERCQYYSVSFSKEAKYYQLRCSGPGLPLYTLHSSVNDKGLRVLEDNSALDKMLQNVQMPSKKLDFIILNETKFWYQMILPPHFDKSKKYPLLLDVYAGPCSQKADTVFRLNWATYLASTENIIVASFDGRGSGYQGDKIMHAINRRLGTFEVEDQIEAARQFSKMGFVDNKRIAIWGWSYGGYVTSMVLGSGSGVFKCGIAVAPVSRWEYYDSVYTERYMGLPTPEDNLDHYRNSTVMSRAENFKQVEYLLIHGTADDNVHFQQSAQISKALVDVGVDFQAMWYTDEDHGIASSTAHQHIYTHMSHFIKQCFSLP
Non-standard residues stand in square brackets, D forms with d. Residues, ends and D or L forms follow the SMILES beside them. ξ: configuration not given here. Leu(5,5,5,5',5',5'-F6) = N[C@@H](CC(C(F)(F)F)C(F)(F)F)C(=O)O; ξBip(2'-Et-4'-OMe) = CCc1cc(OC)ccc1-c1ccc(CC(N)C(=O)O)cc1; ξNva(5-(3-Cl-Ph)) = NC(CCCc1cccc(Cl)c1)C(=O)O; ξbishPhe(2-F) = NC(CCCc1ccccc1F)C(=O)O; ξαMePhe(2-F) = CC(N)(Cc1ccccc1F)C(=O)O; Aib = CC(C)(N)C(=O)O
Recorded metric: % degradation of peptidomimetics in 24 h when incubated with DPP-IV enzyme

Consider the reported % degradation of peptidomimetics in 24 h when incubated with DPP-IV enzyme for these compounds:
CCc1cc(OC)ccc1-c1ccc(CC(C(=O)N(C)C(CCCc2ccccc2)C(N)=O)N(C)C(=O)[C@H](CC(=O)O)N(C)C(=O)[C@H](CO)NC(=O)[C@@H](NC(=O)C(C)(Cc2ccccc2F)NC(=O)[C@@H](NC(=O)CNC(=O)C(CCC#N)NC(=O)C(C)(C)NC(=O)[C@@H](N)Cc2c[nH]cn2)[C@H](C)O)[C@H](C)O)cc1 (single isomer, unassigned) :: 74%
CCc1cc(OC)ccc1-c1ccc(CC(NC(=O)[C@H](CC(=O)O)NC(=O)[C@H](CO)NC(=O)[C@@H](NC(=O)[C@H](Cc2ccccc2)NC(=O)[C@@H](NC(=O)CNC(=O)C(CCC#N)NC(=O)C(C)(C)NC(=O)[C@@H](N)Cc2c[nH]cn2)[C@@H](C)O)[C@@H](C)O)C(=O)NC(CCCc2cccc(Cl)c2)C(N)=O)cc1 (single isomer, unassigned) :: 76%
CCc1cc(OC)ccc1-c1ccc(CC(NC(=O)[C@H](CC(=O)O)NC(=O)[C@H](CO)NC(=O)[C@@H](NC(=O)C(C)(Cc2ccccc2F)NC(=O)[C@@H](NC(=O)CNC(=O)[C@H](CC(C(F)(F)F)C(F)(F)F)NC(=O)C(C)(C)NC(=O)[C@H](Cc2c[nH]cn2)NC(C)=O)[C@@H](C)O)[C@@H](C)O)C(=O)NC(CCCc2ccccc2F)C(N)=O)cc1 (some centres unmarked) [compound 212] (Ac-H[Aib][Leu(5,5,5,5',5',5'-F6)]GT[ξαMePhe(2-F)]TSD[ξBip(2'-Et-4'-OMe)][ξbishPhe(2-F)]-NH2) :: 77%

Report % degradation of peptidomimetics in 24 h when incubated with DPP-IV enzyme for CCc1cc(OC)ccc1-c1ccc(CC(NC(=S)[C@H](CC(=O)O)NC(=O)[C@H](CO)NC(=O)[C@@H](NC(=O)C(C)(Cc2ccccc2F)NC(=O)[C@@H](NC(=O)CNC(=O)C(CCC#N)NC(=O)C(C)(C)NC(=O)[C@@H](N)Cc2c[nH]cn2)[C@H](C)O)[C@H](C)O)C(=S)NC(CCCc2ccccc2)C(N)=O)cc1 (single isomer, unassigned) please. 00%

What does the record list as % degradation of peptidomimetics in 24 h when incubated with DPP-IV enzyme for CCc1cc(OC)ccc1-c1ccc(CC(NC(=O)[C@H](CC(=O)O)NC(=O)[C@H](CO)NC(=O)[C@@H](NC(=O)[C@H](Cc2ccccc2)NC(=O)[C@@H](NC(=O)CNC(=O)[C@H](CCC(N)=O)NC(=O)[C@H](CO)NC(=O)[C@@H](N)Cc2c[nH]cn2)[C@@H](C)O)[C@@H](C)O)C(=O)NC(CCCc2cccc(Cl)c2)C(N)=O)cc1 (some centres unmarked) [compound 7] (H-HSQGTFTSD[ξBip(2'-Et-4'-OMe)][ξNva(5-(3-Cl-Ph))]-NH2) ? 71%

---

test system: C57BL/6J mice (mild hyperglycemic); assay: In vivo glucose reduction, acute single dose 120-min time-course, i.p. route; set-up: species or system mouse; unit not given here; conditions: male C57BL/6J mice, 20 nM/kg i.p., 0 min
# reported blood glucose levels; entries follow

CCc1cc(OC)ccc1-c1ccc(CC(NC(=O)[C@H](CC(=O)O)NC(=O)[C@H](CO)NC(=O)[C@@H](NC(=O)[C@H](Cc2ccccc2)NC(=O)[C@@H](NC(=O)CNC(=O)C(CCC#N)NC(=O)C(C)(C)NC(=O)[C@@H](N)Cc2c[nH]cn2)[C@@H](C)O)[C@@H](C)O)C(=O)NC(CCCc2ccc(Cl)cc2C)C(N)=O)cc1 (single isomer, unassigned) :: 182 ± 3.3
CCc1cc(OC)ccc1-c1ccc(CC(NC(=O)[C@H](CC(=O)O)NC(=O)[C@H](CO)NC(=O)[C@@H](NC(=O)[C@H](Cc2ccccc2)NC(=O)[C@@H](NC(=O)CNC(=O)C(CCC#N)NC(=O)C(C)(C)NC(=O)[C@@H](N)Cc2c[nH]cn2)[C@@H](C)O)[C@@H](C)O)C(=O)NC(CCCc2ccccc2F)C(N)=O)cc1 (single isomer, unassigned) :: 183 ± 4.9
CCc1cc(OC)ccc1-c1ccc(CC(NC(=O)[C@H](CC(=O)O)NC(=O)[C@H](CO)NC(=O)[C@@H](NC(=O)C(C)(Cc2ccccc2F)NC(=O)[C@@H](NC(=O)CNC(=O)C(CCC#N)NC(=O)C(C)(C)NC(=O)[C@@H](N)Cc2c[nH]cn2)[C@H](C)O)[C@H](C)O)C(=S)NC(CCCc2ccccc2F)C(N)=O)cc1 (single isomer, unassigned) :: 182 ± 3.3

Note: attention shifts to another entry.
// query blood glucose levels value for entry CCc1cc(OC)ccc1-c1ccc(CC(NC(=S)[C@H](CC(=O)O)NC(=O)[C@H](CO)NC(=O)[C@@H](NC(=O)C(C)(Cc2ccccc2F)NC(=O)[C@@H](NC(=O)CNC(=O)C(CCC#N)NC(=O)C(C)(C)NC(=O)[C@@H](N)Cc2c[nH]cn2)[C@H](C)O)[C@H](C)O)C(=S)NC(CCCc2ccccc2F)C(N)=O)cc1 (single isomer, unassigned) 180 ± 3.1
